Tested on: OGD-injuried neurons (primary cortical neurons)
experiment-description: Cell viability assay: LDH release by OGD-injured primary cortical neurons
Type: cell-based, mice
condition-notes: Mus musculus, Primary cortical neuron; drug concentration 10^−6 M/L; OGD 2 hours, LDH after 8 hours
measure-name: inhibition at 1 µM
Please append the unit to your numeric answer.

For orientation, consider the following solved cases.
{"compound": "COc1c(Cl)cc(C(F)(F)F)cc1CNc1ccc(C(=O)OC2CC3CCC2(C)C3(C)C)c(O)c1 (stereo not shown) [ZL006-79]", "inhibition at 1 µM": "58.3%"}
{"compound": "CCCCOc1cc(NCc2cc(C(F)(F)F)cc(Cl)c2O)ccc1C(=O)OC1CC2CCC1(C)C2(C)C (stereo not shown) [ZL006-50]", "inhibition at 1 µM": "40.2%"}
{"compound": "CC(=O)Oc1c(C(=O)OC2CC3CCC2(C)C3(C)C)ccc(NCc2cc(Cl)cc(Cl)c2O)c1Cl (stereo not shown) [ZL006-19]", "inhibition at 1 µM": "23.9%"}

Consider the additional compound presented here.
inhibition at 1 µM lookup needed for CC1(C)C2CCC1(C)C(OC(=O)c1ccc(NCc3cc(Cl)cc(Cl)c3O)c(Cl)c1O)C2 (stereo not shown) [ZL006-17] , thanks.
48.2%

* * *

Test system: OGD-injuried neurons (primary cortical neurons)
experiment-description: Cell viability assay: LDH release by OGD-injured primary cortical neurons
Format: cell-based, mice
condition-notes: Mus musculus, Primary cortical neuron; drug concentration 10^−6 M/L; OGD 2 hours, LDH after 8 hours
Recorded inhibition at 1 µM by entry
I only need the number, in %, no unit after it.

For orientation, consider the following solved cases.
{"compound": "CCCC(=O)Oc1cc(NCc2cc(C(F)(F)F)cc(Cl)c2O)ccc1C(=O)OC1CC2CCC1(C)C2(C)C (centres unmarked)", "inhibition at 1 µM / %": 40.5}
{"compound": "CCCC(=O)Oc1cc(NCc2cc(Br)cc(Cl)c2O)ccc1C(=O)OC1CC2CCC1(C)C2(C)C (centres unmarked)", "inhibition at 1 µM / %": 43.5}
{"compound": "CCCC(=O)Oc1cc(NCc2cc(F)cc(Cl)c2O)ccc1C(=O)OC1CC2CCC1(C)C2(C)C (centres unmarked)", "inhibition at 1 µM / %": 68.4}
{"compound": "CC(=O)Oc1c(Cl)cc(C(F)(F)F)cc1CNc1ccc(C(=O)OC2CC3CCC2(C)C3(C)C)c(O)c1 (centres unmarked)", "inhibition at 1 µM / %": 41.1}
{"compound": "CC1(C)C2CCC1(C)C(OC(=O)c1ccc(NCc3cc(C(F)(F)F)cc(Cl)c3O)cc1O)C2 (centres unmarked)", "inhibition at 1 µM / %": 84.2}

inhibition at 1 µM lookup needed for CC1(C)C2CCC1(C)C(OC(=O)c1cc(NCc3cc(C(F)(F)F)cc(Cl)c3O)ccc1O)C2 (centres unmarked) , thanks.
21.1

inhibition at 1 µM lookup needed for CC1(C)C2CCC1(C)C(OC(=O)c1cc(Cl)c(NCc3cc(Cl)cc(Cl)c3O)cc1O)C2 (centres unmarked) , thanks.
60.3

inhibition at 1 µM lookup needed for COc1cc(NCc2cc(C(F)(F)F)cc(Cl)c2O)ccc1C(=O)OC1CC2CCC1(C)C2(C)C (centres unmarked) , thanks.
32.6
